System: M19-MEL
Assay: NCI tumour cell line growth inhibition, 48 h
Active and inactive are the calls of the source. Cut-off read from the data, not from the text of the source: active = GI50 up to about 1.1 µM and inactive = higher.
readout label: GI50

Input: Please look up its GI50: CC(=O)OC1COC(Nc2ccc(C(C)=O)cc2)C(OC(C)=O)C1OC(C)=O (centres undefined)
Output: > 100 µM (inactive)

Input: Next record, please: CCCCCCCC[N+](C)(C)Cc1ccc(C[N+](C)(C)CCCCCCCC)cc1
Output: 31.3 µM (inactive)

Input: Same thing, different compound: N#CC(C(=O)CCC(=O)Nc1cccc(C(F)(F)F)c1)c1ccccc1 (centres undefined)
Output: > 100 µM (inactive)

Input: And for CC(=O)Nc1ccc(C(=O)N2N=C(C)/C(=C/c3cccc([N+](=O)[O-])c3)C2=O)cc1 ?
Output: > 100 µM (inactive)

Input: Then what about the compound CCOC(=O)C1=C(OC(OCC)C(CC)[Se]c2ccccc2)CCCC1 (centres undefined) ?
Output: 15.6 µM (inactive)

Input: And what about the compound COc1ccc(/C(Cl)=C(\c2ccc(OCCN(C)C)cc2)c2ccc(OC(=O)C(C)(C)C)cc2)cc1 ?
Output: 13.7 µM (inactive)

Input: Would you kindly repeat that for COc1cc2nc(Sc3c([N+](=O)[O-])ncn3C)[nH]c2cc1OC ?
Output: 33.1 µM (inactive)

Input: Cc1ccccc1-c1cc(=O)c2cc(C)c(C)c(C(=O)O)c2o1 , same question.
Output: > 100 µM (inactive)

Input: What do you have for CN(C)CCNC(=O)c1cc([N+](=O)[O-])cc2ccc(-c3ccccc3)nc12 ?
Output: 5.93 µM (inactive)

* * *

Tested on: UACC-257
Assay: NCI tumour cell line growth inhibition, 48 h
The source made the active and inactive calls. Cut-off read from the data, not from the text of the source: active = GI50 up to about 1.1 µM and inactive = higher.
readout label: GI50

Input: Form field - read-out: GI50; system: UACC-257; submitted item: O=C(c1ccccc1)C(Nc1ccc2ccccc2c1)c1ccccc1 (centres undefined)
Output: 15.3 µM (inactive)

Input: CC(=O)NC1=C(NCC(C)C)C(=O)c2ccccc2C1=O ?
Output: 18.8 µM (inactive)

Input: How about O=C1Nc2cc([N+](=O)[O-])c(Br)cc2C1=O ?
Output: 18 µM (inactive)

Input: Try the molecule CCOC(=O)CNC(=O)OCc1ccccc1
Output: > 100 µM (inactive)

* * *

Test system: OVCAR-8
Experiment: NCI tumour cell line growth inhibition, 48 h
Activity calls are given as the source filed them. No stated cut-off is given here; in the data, active = GI50 up to about 1.1 µM and inactive = higher.
Thanks in advance; please answer with one of these: active, inactive

Input: Please state the recorded outcome for this compound: CCOC(=O)c1c(SCCN2CCCCC2)n(-c2ccccc2)c(=S)n(-c2ccccc2)c1=O
Output: inactive

Input: Further, for O=c1ccc2nc3ccc(O)cc3oc-2c1 ?
Output: inactive

Input: Let us now turn to O=C(CCCNc1nc(-c2ccccc2)cs1)c1cccs1
Output: inactive

Input: Continue with CCOC(=O)c1cn2c(n1)sc1cc(OC)ccc12
Output: inactive

Input: Please do the same for O=C(O)/C=C/c1nc2ccccc2c(=O)o1 as well.
Output: inactive

Input: And the next one, CC(=O)C(CN1CCOCC1)C(c1ccccc1)c1c(O)c2ccccc2oc1=O (configuration not stated) ?
Output: inactive

Input: Another compound to look at: O=C(CN1C(=O)CC(c2ccccc2)(c2ccccc2)C1=O)N1CCN(CCO)CC1
Output: inactive

Input: Request: COc1ccc2[nH]c3c(c2c1)CC(=S)N1CCCC(CC3=O)C1 (configuration not stated)
Output: inactive

Input: Thanks! And O=C(/C=C/c1cc(F)ccc1F)OCCc1ccccc1 ?
Output: inactive

Input: Another compound: NC(=O)N/N=C(\CC1OC(=O)c2ccccc21)c1ccc([N+](=O)[O-])cc1 (configuration not stated)
Output: inactive

Input: How about c1csc(-c2ccc(-c3ccc(-c4cccs4)s3)s2)c1 ?
Output: inactive

Input: Now the compound CC(C)NC(=O)OCc1c(COC(=O)NC(C)C)c(-c2ccc[n+](COC(=O)C(C)(C)C)c2)n2c1CCC2
Output: inactive

Input: Input N#C/C(=C\c1ccncc1)c1csc2ccccc12
Output: inactive

Input: Try this compound next: O=C(c1ccccc1)c1cc(-c2ccccc2)c(-c2ccccc2)[nH]c(=O)c1=O
Output: inactive

Input: Now this one: CN(C)c1ccc2nc(CC(O)(C(F)(F)F)C(F)(F)F)ccc2c1
Output: inactive

Input: // query: O=c1cc(NNc2ccc3ccccc3c2)[nH]c(=S)[nH]1
Output: inactive

Input: Next record, please: C/C=C1/C(=O)O[C@]23C=C[C@@H]4C(C(=O)OC)=CO[C@H](O[C@@H]12)[C@@H]43
Output: active

Input: Please answer likewise for COC[C@H]1C(=O)NCC(=O)N2N=CCC[C@H]2C(=O)N(O)[C@H](C)C(=O)O[C@@H](C(C)C)[C@H](NC(=O)[C@@](C)(O)[C@]2(O)CC[C@@H](CC(C)C)[C@H](C)O2)C(=O)N2NCCC[C@@H]2C(=O)N1O
Output: active

Input: Follow-up entry: COc1cc2nc(Sc3c([N+](=O)[O-])ncn3C)[nH]c2cc1OC
Output: inactive

Input: Here is the next compound: C1=CC=C2NCCC/N=C3/C=CC=CC=C3NCCC/N=C\2C=C1
Output: inactive

Input: C=[N+](CNC(=O)CNC(=O)C(Cc1ccc([N+](=O)[O-])cc1)NC(=O)OC(C)(C)C)C(=O)CNC(=O)C(Cc1ccc([N+](=O)[O-])cc1)NC(=O)OC(C)(C)C (configuration not stated) , same question.
Output: inactive

Input: Repeat with O=Cc1ccccc1OCCOc1cc(OCCOc2ccccc2C=O)c(OCCOc2ccccc2C=O)cc1OCCOc1ccccc1C=O
Output: inactive

Input: Entry to check: Cc1cc2c(nn1)CCc1c-2no[n+]1[O-]
Output: inactive

Input: Entry C=C1CC[C@H](O)C(C)(C)[C@@H]1CC/C(C)=C/CC/C=C(\C)CC/C=C(\C)CCC=C(C)C please
Output: inactive

Input: Another compound to look at: COC(=O)/C=C/CCC#Cc1ccccc1C#CCC/C=C/C(=O)OC
Output: inactive

Input: Repeat for the following compound: NC1CCCCC1.O=P(O)(O)C1(P(=O)(O)O)CC1
Output: inactive

Input: CC12CCC(CC1(Cl)Cl)C2 (configuration not stated) ?
Output: inactive
